Assay: Venetoclax plasma pharmacokinetics in wild-type, CYP3A(−/−) and OATP1B2(−/−) mice
Assay type: in vivo
Conditions: female, FVB, mouse, plasma, po, 10 mg/kg, wild-type FVB, female, venetoclax 10 mg/kg PO 30 min after ketoconazole 50 mg/kg PO; mean (SE); read-out: Venetoclax AUC(0–8h)
PARAMETER_MEASURED: AUC(0-t) (ng·h/mL)
Report as a plain number; the unit ng·h/mL is understood.

# lookup: AUC(0-t) of CC1(C)CCC(CN2CCN(c3ccc(C(=O)NS(=O)(=O)c4ccc(NCC5CCOCC5)c([N+](=O)[O-])c4)c(Oc4cnc5[nH]ccc5c4)c3)CC2)=C(c2ccc(Cl)cc2)C1 [Venetoclax] 19700
